- measured on: NLRP3 (Homo sapiens, UniProt Q96P20)
- Sequence (Q96P20 whole entry): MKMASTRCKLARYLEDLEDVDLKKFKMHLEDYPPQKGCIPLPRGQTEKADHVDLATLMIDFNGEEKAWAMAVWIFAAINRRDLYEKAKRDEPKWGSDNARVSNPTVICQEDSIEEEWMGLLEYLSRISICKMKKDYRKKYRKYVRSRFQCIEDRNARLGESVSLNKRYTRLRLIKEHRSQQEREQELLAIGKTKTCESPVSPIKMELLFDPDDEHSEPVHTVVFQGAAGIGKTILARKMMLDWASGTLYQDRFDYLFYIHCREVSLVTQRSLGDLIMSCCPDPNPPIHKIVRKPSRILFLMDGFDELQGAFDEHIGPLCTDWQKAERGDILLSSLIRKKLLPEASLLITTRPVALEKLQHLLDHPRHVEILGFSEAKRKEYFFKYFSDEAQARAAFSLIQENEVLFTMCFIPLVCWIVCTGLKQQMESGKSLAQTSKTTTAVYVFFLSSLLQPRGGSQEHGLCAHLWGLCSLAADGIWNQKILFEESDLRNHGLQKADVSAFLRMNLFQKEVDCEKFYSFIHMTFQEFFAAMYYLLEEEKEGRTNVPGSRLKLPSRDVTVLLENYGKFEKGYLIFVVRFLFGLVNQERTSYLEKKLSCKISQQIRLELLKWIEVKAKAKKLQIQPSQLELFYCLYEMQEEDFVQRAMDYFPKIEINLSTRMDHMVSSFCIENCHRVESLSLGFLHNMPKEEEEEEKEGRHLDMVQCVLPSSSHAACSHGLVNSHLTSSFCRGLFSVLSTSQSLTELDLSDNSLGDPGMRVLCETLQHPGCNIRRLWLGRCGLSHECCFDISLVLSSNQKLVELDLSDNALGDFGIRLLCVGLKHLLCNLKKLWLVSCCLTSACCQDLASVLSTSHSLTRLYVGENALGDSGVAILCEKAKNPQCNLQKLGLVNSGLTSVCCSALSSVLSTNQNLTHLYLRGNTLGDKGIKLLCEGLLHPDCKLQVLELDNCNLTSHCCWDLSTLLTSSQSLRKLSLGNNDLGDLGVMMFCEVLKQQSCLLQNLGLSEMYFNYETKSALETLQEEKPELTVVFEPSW
- assay method text: THP-1 cells pyroptosis assay (LPS + nigericin, resazurin readout; THP IC50)
- Assay type: cell-based
- Design: Seed THP-1 cells (25,000 cells/well) containing 1.0 μg/ml LPS in 40 μl of RPMI medium; host or cells: THP-1 cells
Where a name gives a salt, the structure may show the parent alone.
readout label: IC50

Please review the entries below; each comes with its answer.
> print(dat)
                                   compound  recorded.measurement
1  COc1cc(-c2ccc3c(c2NC(=O)NS(=O)(=O)c2ccn(C(C)(C)CN4CC(F)C4)n2)CCC3)ccn1 [Example 242, sodium salt]              ≤ 500 nM
2  COCC(C)Oc1cc(-c2ccc3c(c2NC(=O)NS(=O)(=O)c2ccn(C(C)C)n2)CCC3)ccn1 (stereo not drawn) [Example 289, sodium salt]              ≤ 500 nM
3  COc1cc(-c2ccc3c(c2NC(=O)NS(=O)(=O)c2ccc(=O)n(C(C)C)c2)CCC3)ccn1              ≤ 500 nM
4  CC(C)c1cc(F)cc(-c2ccnc(C#N)c2)c1NC(=O)NS(=O)(=O)C1CN(C2CCC2)C1            ≤ 10000 nM
5  O=C(Nc1c(-c2ccncc2)ccc2c1CCC2)NS(=O)(=O)c1ccn(C2CCC2)n1              ≤ 500 nM
6  COc1cc(-c2ccc3c(c2NC(=O)NS(=O)(=O)c2nccnc2C(F)F)CCC3)ccn1             ≤ 1000 nM

In: Param item = CN1CCCC1CN(C)S(=O)(=O)NC(=O)Nc1c(-c2ccnc(C#N)c2)ccc2c1CCC2 (stereo not drawn) ; retrieve measured IC50.
Out: ≤ 1000 nM

In: Returns the measured IC50 for the input compound. Input: `CC(C)c1cc(F)cc(-c2ccnc(O)c2)c1NC(=O)NS(=O)(=O)c1ccn(C(C)C)n1`
Out: ≤ 500 nM

In: Please give the measured IC50 for this compound: COc1cc(-c2cc(F)c3c(c2NC(=O)NS(=O)(=O)N(C)CC2CCCN2C)CCC3)ccn1 (stereo not drawn)
Out: ≤ 500 nM

In: Field request: IC50 | item: `COc1cc(-c2cc3c(cc2NC(=O)NS(=O)(=O)c2ccn(C4CC4)n2)CCC3)ccn1`
Out: ≤ 5000 nM

In: Please look up its IC50: COc1cc(-c2cc(F)cc(C(C)C)c2NC(=O)NS(=O)(=O)C(C)c2ccccc2)ccn1 (stereo not drawn)
Out: ≤ 5000 nM

In: Look up IC50 for this compound: `COc1cc(-c2ccc3c(c2NC(=O)NS(=O)(=O)c2cc(N(C)C)cnn2)CCC3)ccn1`
Out: ≤ 500 nM

This collection of values is drawn from patent US20200361895A1.
